Numbers sourced from PubChem BioAssay AID248.

Kindly supply the reported T/C values for the records listed here.
Tested on: L1210 leukemia ip in BDF1 mice, survival T/C
Assay: NCI In Vivo Anticancer Drug Screen. Data for tumor model L1210 Leukemia (intraperitoneal) in B6D2F1 (BDF1) mice
Conditions: endpoint: mean survival time; dose: 50.0 mg/kg/injection; schedule: Q01DX001 (ip); vehicle: saline; higher = longer survival
Toxic doses and inconclusive results are not listed.

Answered examples (5):
compound="[N-]=[N+]=Nc1nc2c(N)ncnc2n1C1OC(CO)C(O)C1O (configuration not stated)" quantity_name=T/C value="105 % of control"
compound="CN(C)C1C(=O)C(C(N)=O)=C(O)C2(O)C(=O)C3=C(O)c4c(O)cccc4C(C)(O)C3C(O)C12 (configuration not stated)" quantity_name=T/C value="93 % of control"
compound=C[N+](C)(CCOc1ccccc1)Cc1cccs1 quantity_name=T/C value="109 % of control"
compound=Cc1ccc(S(=O)(=O)OCCN(CCOS(=O)(=O)c2ccc(C)cc2)c2ccc(N=O)cc2)cc1 quantity_name=T/C value="115 % of control"
compound="C=C1C(=O)OC2CCC(O)C12 (configuration not stated)" quantity_name=T/C value="108 % of control"

# return T/C for each item in the list
1. COc1cc([C@@H]2c3cc4c(c(O)c3C[C@H]3COC(=O)[C@@H]32)OCO4)cc(OC)c1OC
2. O=C1C(O)=C(c2ccccc2)C(=O)C(O)=C1c1ccccc1
3. Clc1c(Cl)c(/C=N/Nc2ccccc2)c(Cl)c(Cl)c1/C=N\Nc1ccccc1
4. N#CSCC(=O)c1ccccc1
5. O=S(=O)(c1ccccc1)c1ccc(O)cc1
6. Cc1ccc(CC(=O)c2c[nH]c3ccccc23)c(Cl)c1C
7. Cc1cc(Br)c(C)cc1Br

Result string:
1: 101 % of control; 2: 104 % of control; 3: 101 % of control; 4: 97 % of control; 5: 95 % of control; 6: 96 % of control; 7: 100 % of control
